# Target Of Assay: T1, PD-L1 (UniProt Q9NZQ7 19-238, limits assumed)
# T1 construct: Coated antigen of experiments 1 and 3; also called 程序性死亡分子1配体; CD274
# T1 sequence (Q9NZQ7 19-238 limits assumed): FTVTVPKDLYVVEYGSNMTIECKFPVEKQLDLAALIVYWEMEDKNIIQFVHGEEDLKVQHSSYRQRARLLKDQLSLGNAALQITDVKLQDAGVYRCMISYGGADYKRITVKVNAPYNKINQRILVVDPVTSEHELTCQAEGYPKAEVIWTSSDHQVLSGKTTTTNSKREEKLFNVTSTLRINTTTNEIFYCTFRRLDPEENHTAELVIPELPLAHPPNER
# Procedure Details: ELISA, PD-L1 coated 100 ng/well, full antibody titrated from 1 ug/ml, Anti-Human Fc-HRP
Attribute Measured: EC50 (ng/mL)

binder="BH2-B11 全抗体 (full antibody, human IgG1/kappa) (antibody, V domains shown, Full antibody expressed in HEK293E from vector pTSE) VH: EVQLVESGGGLVQPGGSLRLSCAASGLTWSDSYKHWVRQAPGKGLEWVHWNSTYGGSTYYADSVKGRFTISADTSKNTAYLQMNSLRAEDTAVYYCARRHFASTWDYWGQGTLVTVSS VL: DIQMTQSPSSLSASVGDRVTITCRASQNIHNSLAWYQQKPGKAPKLLIYGASSLESGVPSRFSGSGSGTDFTLTISSLQPEDFATYYCQQERRVPWTFGQGTKVEIKR" readout_unit=ng/mL readout_value=0.535
binder="AC9-E3 全抗体 (full antibody, human IgG1/kappa) (antibody, V domains shown, Full antibody expressed in HEK293E from vector pTSE) VH: EVQLVESGGGLVQPGGSLRLSCAASGCTWSDSWDHWVRQAPGKGLEWVDYESTYGGSTYYADSVKGRFTISADTSKNTAYLQMNSLRAEDTAVYYCARRHWNATFDYWGQGTLVTVSS VL: DIQMTQSPSSLSASVGDRVTITCRASQSIHNYLAWYQQKPGKAPKLLIYSASNLPSGVPSRFSGSGSGTDFTLTISSLQPEDFATYYCQQGLHTPPTFGQGTKVEIKR" readout_unit=ng/mL readout_value=2.17
binder="BH2-E3 全抗体 (full antibody, human IgG1/kappa) (antibody, V domains shown, Full antibody expressed in HEK293E from vector pTSE) VH: EVQLVESGGGLVQPGGSLRLSCAASGLTWSDSYKHWVRQAPGKGLEWVHWNSTYGGSTYYADSVKGRFTISADTSKNTAYLQMNSLRAEDTAVYYCARRHFASTWDYWGQGTLVTVSS VL: DIQMTQSPSSLSASVGDRVTITCRASQSIHNYLAWYQQKPGKAPKLLIYSASNLPSGVPSRFSGSGSGTDFTLTISSLQPEDFATYYCQQGLHTPPTFGQGTKVEIKR" readout_unit=ng/mL readout_value=1.23
